- target_entity: human FGFR1c + KLB receptor complex on HEK293 iLite FGF21 reporter cells (human, UniProt P11362 22-822; Q86Z14 1-1044)
- Sequence (P11362 22-822, chain 1 of 2): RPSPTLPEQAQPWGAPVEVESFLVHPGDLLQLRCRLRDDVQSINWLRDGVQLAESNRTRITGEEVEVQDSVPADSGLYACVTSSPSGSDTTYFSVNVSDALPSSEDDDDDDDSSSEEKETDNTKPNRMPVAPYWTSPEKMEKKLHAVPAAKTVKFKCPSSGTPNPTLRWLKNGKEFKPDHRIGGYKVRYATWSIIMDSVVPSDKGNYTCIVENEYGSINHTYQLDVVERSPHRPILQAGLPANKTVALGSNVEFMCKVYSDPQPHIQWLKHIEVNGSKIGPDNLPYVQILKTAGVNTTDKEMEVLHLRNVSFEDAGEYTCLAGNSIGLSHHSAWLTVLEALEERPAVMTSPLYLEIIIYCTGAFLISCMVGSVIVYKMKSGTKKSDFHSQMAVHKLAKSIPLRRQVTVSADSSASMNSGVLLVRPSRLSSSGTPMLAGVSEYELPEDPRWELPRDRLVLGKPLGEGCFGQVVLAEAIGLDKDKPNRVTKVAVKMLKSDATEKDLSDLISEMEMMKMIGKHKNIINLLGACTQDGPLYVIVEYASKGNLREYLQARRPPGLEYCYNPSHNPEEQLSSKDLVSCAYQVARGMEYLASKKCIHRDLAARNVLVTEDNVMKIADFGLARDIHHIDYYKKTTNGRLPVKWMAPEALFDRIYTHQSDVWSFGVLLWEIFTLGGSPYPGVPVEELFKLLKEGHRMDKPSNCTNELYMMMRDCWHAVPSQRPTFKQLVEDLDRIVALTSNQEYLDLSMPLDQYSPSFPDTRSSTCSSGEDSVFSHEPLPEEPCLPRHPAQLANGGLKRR
- Sequence (Q86Z14 whole entry, chain 2 of 2): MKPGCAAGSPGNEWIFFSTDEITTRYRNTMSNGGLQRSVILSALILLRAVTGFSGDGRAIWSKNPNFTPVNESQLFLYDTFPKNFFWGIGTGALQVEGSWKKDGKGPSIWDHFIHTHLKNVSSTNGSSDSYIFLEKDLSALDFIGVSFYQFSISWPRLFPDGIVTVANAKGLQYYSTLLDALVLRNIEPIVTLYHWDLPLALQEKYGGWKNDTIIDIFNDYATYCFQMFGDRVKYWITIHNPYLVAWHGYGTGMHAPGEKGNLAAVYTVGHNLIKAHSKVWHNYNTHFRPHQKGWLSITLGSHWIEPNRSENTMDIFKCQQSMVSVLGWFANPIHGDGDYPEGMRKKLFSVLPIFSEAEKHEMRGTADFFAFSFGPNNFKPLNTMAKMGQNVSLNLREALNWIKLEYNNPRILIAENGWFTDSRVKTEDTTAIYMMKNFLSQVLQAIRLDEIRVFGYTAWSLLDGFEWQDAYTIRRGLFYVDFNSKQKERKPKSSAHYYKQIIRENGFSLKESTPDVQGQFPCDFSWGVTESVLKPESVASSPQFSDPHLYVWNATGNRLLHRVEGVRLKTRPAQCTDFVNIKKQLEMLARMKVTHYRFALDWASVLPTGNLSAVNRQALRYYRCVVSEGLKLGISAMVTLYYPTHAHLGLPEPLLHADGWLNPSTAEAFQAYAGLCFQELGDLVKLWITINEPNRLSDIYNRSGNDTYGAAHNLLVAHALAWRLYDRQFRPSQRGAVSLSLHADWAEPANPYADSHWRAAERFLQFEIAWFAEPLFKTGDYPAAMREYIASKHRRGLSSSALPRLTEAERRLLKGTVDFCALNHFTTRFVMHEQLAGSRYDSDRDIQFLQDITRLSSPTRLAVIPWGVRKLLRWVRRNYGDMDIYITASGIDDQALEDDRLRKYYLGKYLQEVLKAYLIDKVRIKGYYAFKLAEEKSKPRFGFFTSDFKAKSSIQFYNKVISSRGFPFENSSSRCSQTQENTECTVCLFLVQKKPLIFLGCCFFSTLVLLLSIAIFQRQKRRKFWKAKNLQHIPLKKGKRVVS
- test_details: cell-based or functional assay
property: EC50 (nM)
Numbers only; they are read as nM.

(Q) Entry Ab0328 (antibody, IgG4, V domains shown) VH: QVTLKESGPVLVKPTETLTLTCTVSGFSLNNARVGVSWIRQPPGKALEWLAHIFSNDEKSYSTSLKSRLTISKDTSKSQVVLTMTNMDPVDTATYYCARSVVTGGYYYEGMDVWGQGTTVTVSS VL: SYVLTQPPSVSVAPGQTARITCGGSNIGSESVHWYQQKPGQAPVLVVYYASDRPSGIPERFSGSNSGNTATLTISRVEAGDEADYYCQVWAGSSDHVVFGGGTKLTVLG : reported EC50 = ?
(A) 4.11

(Q) Looking for the measured EC50 of Ab0312 (antibody, IgG4, V domains shown, IgG4 PE) VH: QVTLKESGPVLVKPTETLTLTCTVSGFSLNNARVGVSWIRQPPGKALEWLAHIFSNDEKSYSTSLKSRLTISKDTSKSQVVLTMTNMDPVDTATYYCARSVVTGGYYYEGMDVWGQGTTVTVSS VL: SYVLTQPPSVSVAPGQTARITCGGSNIGSESVHWYQQKPGQAPVLVVYYESDRPSGIPERFSGSNSGNTATLTISRVEAGDEADYYCQVWDGESDHVVFGGGTKLTVLG , can you help?
(A) 0.07
